assay: yeast display, Sf9 membrane polyspecificity reagent, FACS + sequencing; frameworks hold sequencing errors
Attribute Measured: polyreactivity (PSR sort gate)

QVQLVESGGGLVQAGGSLRLSCPASGLIFRSYAMGRYRQAPGKERELVARISIRGGSTYYADSVKGRFTISRDNAKNTVYLQMNSLKPEDTAVYYCAAVGYLGGYRYDYWGQGTQVTVSS high polyreactivity
QVQLVESGGGLVQAGGSLRLSCAATGLIIRYYAMGWYRQAPGKEREFVAAITWNGGSTYADSVKGRFTISRDNAKNTVYLQMNSLKPEDTAVYYSAADLSYWDDFDYWGQGTQVTVSS low polyreactivity
QVQLVESGGGLVQAGGSLRLSCAASGSIFSYNAMGWYRQAPGKERELVAVITRGGSTYYADSVKGRFTISRDNAKNTVYLQMNSLKPEDTAVYYCAAGAHRRGYDYWGQGTQVTVSS high polyreactivity
QVQLVESGGGLVQAGGSLRLSCAASGLIFVINAMGWYRQAPGKERELVATISSGVSTNYADSVKGRFTISRDNAKNTVYLQMNSLKPEDTAVYYCKKGQTVSRGYRLYERYDYWGQGTQVTVSS low polyreactivity
QVQLVESGGGLVQAGGRLRLSCAASGFYLNAMGWYRQAPGKDRELVATITSSATNTYYADSVKGRFTISRDNAKNTVYLQMNSLKPEDTAVYYCNARYTSHTLADGVYLYDYWGQGTQVTVSS low polyreactivity
